targetDesc: CD3ε homodimer protein (human, UniProt P07766 23-126, limits assumed)
Sequence (P07766 23-126 limits assumed): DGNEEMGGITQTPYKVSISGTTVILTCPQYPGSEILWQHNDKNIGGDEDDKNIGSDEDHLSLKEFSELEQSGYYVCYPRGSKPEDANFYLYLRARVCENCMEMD
methodNotes: SPR, immobilized CD3ε homodimer;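 note: biacore T200 surface plasmon resonance at 25 °C, antibody variants flowed as analytes over amine-coupled CD3ε homodimer on a CM4 chip, variant binding amount divided by that of GLS3000 antibody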
Please respond with Satisfied when measured ratio of amounts bound (vs GLS3000) is strictly beneath 0.4, and with Not satisfied in all other cases.

binder	assignedClass
GLS3000 H34Q (antibody, name in Kabat numbering, V domains shown, one-arm format as m2) VH: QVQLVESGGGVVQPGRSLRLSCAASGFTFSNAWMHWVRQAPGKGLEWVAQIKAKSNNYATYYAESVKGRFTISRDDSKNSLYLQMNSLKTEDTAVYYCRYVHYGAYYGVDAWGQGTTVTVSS VL: DIVMTQSPLSLPVTPGEPASISCRSSQSLVHSNRNTYLQWYQQKPGQAPRLLIYKVSNRFSGVPDRFSGSGSGTDFTLKISRVEAEDVGVYYCGQGTQVPYTFGQGTKLEIK	Satisfied
GLS3000 V94L (antibody, name in Kabat numbering, V domains shown, one-arm format as m2) VH: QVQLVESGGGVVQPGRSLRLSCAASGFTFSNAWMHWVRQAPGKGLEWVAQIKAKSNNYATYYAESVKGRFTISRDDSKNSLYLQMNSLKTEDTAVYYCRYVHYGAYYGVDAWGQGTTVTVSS VL: DIVMTQSPLSLPVTPGEPASISCRSSQSLVHSNRNTYLHWYQQKPGQAPRLLIYKVSNRFSGVPDRFSGSGSGTDFTLKISRVEAEDVGVYYCGQGTQLPYTFGQGTKLEIK	Not satisfied
GLS3000 F55L (antibody, name in Kabat numbering, V domains shown, one-arm format as m2) VH: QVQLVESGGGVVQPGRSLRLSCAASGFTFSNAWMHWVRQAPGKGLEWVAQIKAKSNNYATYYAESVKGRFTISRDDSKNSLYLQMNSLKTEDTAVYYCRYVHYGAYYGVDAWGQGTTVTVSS VL: DIVMTQSPLSLPVTPGEPASISCRSSQSLVHSNRNTYLHWYQQKPGQAPRLLIYKVSNRLSGVPDRFSGSGSGTDFTLKISRVEAEDVGVYYCGQGTQVPYTFGQGTKLEIK	Not satisfied
GLS3000 S56P (antibody, name in Kabat numbering, V domains shown, one-arm format as m2) VH: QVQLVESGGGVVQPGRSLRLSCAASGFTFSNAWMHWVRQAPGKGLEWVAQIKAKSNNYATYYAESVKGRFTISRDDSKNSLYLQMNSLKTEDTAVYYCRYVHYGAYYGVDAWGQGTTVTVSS VL: DIVMTQSPLSLPVTPGEPASISCRSSQSLVHSNRNTYLHWYQQKPGQAPRLLIYKVSNRFPGVPDRFSGSGSGTDFTLKISRVEAEDVGVYYCGQGTQVPYTFGQGTKLEIK	Not satisfied
GLS3000 R24P (antibody, name in Kabat numbering, V domains shown, one-arm format as m2) VH: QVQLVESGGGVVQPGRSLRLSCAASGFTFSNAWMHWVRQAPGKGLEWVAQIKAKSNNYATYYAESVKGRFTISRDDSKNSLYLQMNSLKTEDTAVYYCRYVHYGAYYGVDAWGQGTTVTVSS VL: DIVMTQSPLSLPVTPGEPASISCPSSQSLVHSNRNTYLHWYQQKPGQAPRLLIYKVSNRFSGVPDRFSGSGSGTDFTLKISRVEAEDVGVYYCGQGTQVPYTFGQGTKLEIK	Not satisfied
GLS3000 N30R (antibody, name in Kabat numbering, V domains shown, one-arm format as m2) VH: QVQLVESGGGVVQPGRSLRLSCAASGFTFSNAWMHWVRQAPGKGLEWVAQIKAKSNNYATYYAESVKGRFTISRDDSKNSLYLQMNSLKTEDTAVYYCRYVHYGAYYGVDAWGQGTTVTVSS VL: DIVMTQSPLSLPVTPGEPASISCRSSQSLVHSNRRTYLHWYQQKPGQAPRLLIYKVSNRFSGVPDRFSGSGSGTDFTLKISRVEAEDVGVYYCGQGTQVPYTFGQGTKLEIK	Not satisfied
GLS3000 N53P (antibody, name in Kabat numbering, V domains shown, one-arm format as m2) VH: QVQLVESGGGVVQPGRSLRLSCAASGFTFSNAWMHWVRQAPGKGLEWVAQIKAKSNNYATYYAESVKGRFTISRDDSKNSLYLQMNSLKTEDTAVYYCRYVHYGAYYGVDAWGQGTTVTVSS VL: DIVMTQSPLSLPVTPGEPASISCRSSQSLVHSNRNTYLHWYQQKPGQAPRLLIYKVSPRFSGVPDRFSGSGSGTDFTLKISRVEAEDVGVYYCGQGTQVPYTFGQGTKLEIK	Not satisfied
GLS3000 F55R (antibody, name in Kabat numbering, V domains shown, one-arm format as m2) VH: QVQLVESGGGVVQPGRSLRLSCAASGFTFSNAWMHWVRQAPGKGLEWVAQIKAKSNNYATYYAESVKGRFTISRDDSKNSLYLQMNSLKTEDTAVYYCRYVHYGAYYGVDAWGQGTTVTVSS VL: DIVMTQSPLSLPVTPGEPASISCRSSQSLVHSNRNTYLHWYQQKPGQAPRLLIYKVSNRRSGVPDRFSGSGSGTDFTLKISRVEAEDVGVYYCGQGTQVPYTFGQGTKLEIK	Not satisfied
GLS3000 G91S (antibody, name in Kabat numbering, V domains shown, one-arm format as m2) VH: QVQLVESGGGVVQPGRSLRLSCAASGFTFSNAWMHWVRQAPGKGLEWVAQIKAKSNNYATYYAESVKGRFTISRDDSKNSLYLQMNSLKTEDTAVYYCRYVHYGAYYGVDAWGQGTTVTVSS VL: DIVMTQSPLSLPVTPGEPASISCRSSQSLVHSNRNTYLHWYQQKPGQAPRLLIYKVSNRFSGVPDRFSGSGSGTDFTLKISRVEAEDVGVYYCGQSTQVPYTFGQGTKLEIK	Satisfied
GLS3000 R77S (antibody, name in Kabat numbering, V domains shown, one-arm format as m2) VH: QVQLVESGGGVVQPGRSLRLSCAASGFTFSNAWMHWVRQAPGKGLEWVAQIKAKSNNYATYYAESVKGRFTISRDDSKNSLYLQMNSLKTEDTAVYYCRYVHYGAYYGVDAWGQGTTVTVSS VL: DIVMTQSPLSLPVTPGEPASISCRSSQSLVHSNRNTYLHWYQQKPGQAPRLLIYKVSNRFSGVPDRFSGSGSGTDFTLKISSVEAEDVGVYYCGQGTQVPYTFGQGTKLEIK	Not satisfied
GLS3000 H27dE (antibody, name in Kabat numbering, V domains shown, one-arm format as m2) VH: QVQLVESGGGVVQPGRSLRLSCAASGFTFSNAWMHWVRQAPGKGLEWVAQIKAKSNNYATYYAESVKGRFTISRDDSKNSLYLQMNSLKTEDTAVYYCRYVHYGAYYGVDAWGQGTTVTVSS VL: DIVMTQSPLSLPVTPGEPASISCRSSQSLVESNRNTYLHWYQQKPGQAPRLLIYKVSNRFSGVPDRFSGSGSGTDFTLKISRVEAEDVGVYYCGQGTQVPYTFGQGTKLEIK	Satisfied
